experiment: protein stability index of a GFP-peptide fusion (yeast GPS) (PSI 1-4); higher = more stable; sorted into four equal gates, so the index is relative within each strain
measurement.context: pdr5∆
Tick true (1) if protein stability index is 2 or greater. Tick false (0) if protein stability index is less than 2.

These solved cases illustrate the format of a correct answer.
Task: Exam item: decide whether the reported protein stability index for IKRMAIRNIVEAAAVRD [RPS26A] is at least 2.
Result: false (0)

Task: # check: protein stability index of ISFAAFILADAGLEITS [RPP1B] is greater than or equal to 2
Result: false (0)

Task: Does the sequence KREEKAMTIYWDDHTKK [CDC53] have recorded protein stability index that is 2 or more?
Result: true (1)

Task: Could you tell me if the measured protein stability index of QDQYKEGIKVVDIDDPD [SNF2] reaches 2 or more?
Result: true (1)

***
Task: hey, is protein stability index for this one >= 2? LCHPKKEKYGLAVSTIL [SMC1]
Result: true (1)

Task: Would you say ETDDNIETVMTQEQFVK [SRB4] shows protein stability index at minimum 2?
Result: true (1)

Task: Say whether LYDSLASTPSIRPDGRL [RRP42] shows protein stability index of 2 or more.
Result: true (1)

Task: Exam item: decide whether the reported protein stability index for AETQGSKVVIDSIIDNI [IRR1] is at least 2.
Result: true (1)

* * *

Assign protein stability index to each entry below.
experiment: protein stability index of a GFP-peptide fusion (yeast GPS) (PSI 1-4); higher = more stable; sorted into four equal gates, so the index is relative within each strain
measurement.context: ubr1∆

Would you please look over these solved cases?
Noted for INNPVNLTIHFGGEKGK [FAS1] : its protein stability index reads 3.25

For record IHEIDERLAKVNEMNDQ [NNF1] the listed protein stability index is 1.96

So, GLRTENVLDYFAESPFF [MED6] ? Its protein stability index was 2.83

The value of protein stability index measured for the sequence TPIAGRFTPGSFTNYIT [RPS0A] turned out to be 3.16

For every item in the list below, what is its measured protein stability index?
1. PNIFPNLTYYNEKLECI [ITC1]
2. KDYHTLANNVESKLRDD [RPS18A]

Result:
2.68
3.33

// for each sequence in input: emit protein stability index
1. QIILAYIKYNILLTSIS [SRP68]
2. SFLFSAIPLQQVLSQSA [SWI1]
3. HSFAVLLHERKLLNDLA [NUT1]
4. KEAALKTMIKTIEKDKM [SMC2]
5. CRVCSSHTGLIRKYGLN [RPS29A]
6. GVAMNPVDHPHGGGNHQ [RPL2A]
7. RQKARTDAHTPLARNYI [RPR2]
8. NIRSQLLSENRSEKSTT [SRP54]

Result:
[1.18, 1.39, 2.71, 2.03, 1.59, 3.25, 2.86, 3.13]

// for each sequence below, give its protein stability index
1. IPGLSAGVNNDNTKESK [RTT102]
2. REDMPFTAEGIVPDLII [RPB2]

Result:
1. 3.35
2. 2.79

* * *

experiment: protein stability index of a GFP-peptide fusion (yeast GPS) (PSI 1-4); higher = more stable; sorted into four equal gates, so the index is relative within each strain
measurement.context: san1∆
Give measured protein stability index for each item. Keep answers brief.
Answers are plain numbers.

Reported protein stability index of KKQVHVYRFVTENAIEE [ISW2] : 1.87

Hey, quick one: what's protein stability index for each of these?
1. RKFERARGRRRSKGFKV [RPL18A]
2. ERHGYIRGIVKQIVHDS [RPL2A]
3. ATAAESDVAKQLAALGY [RPL16A]
4. SASVRALIENWAADSVS [FAS1]
5. QQAQAQAQAQAQAQAQA [GAL11]
6. YHLLNYDPIKRIDAFNA [SSN3]
7. TYVEELFPIVKKHGKTD [YJL039C/NUP192]
8. EHFSDEETYEEKPQFKD [RPO26]

Result:
1. 3.54
2. 1.92
3. 3.18
4. 2.59
5. 2.92
6. 1.6
7. 3.32
8. 3.25

* * *

Would you mind telling me the reported protein stability index of each entry?
experiment: protein stability index of a GFP-peptide fusion (yeast GPS) (PSI 1-4); higher = more stable; sorted into four equal gates, so the index is relative within each strain
measurement.context: ubr1∆
Give bare numbers.

Worked set:
Reported protein stability index ( QLDGFSSDDRVKVLAAT [RPT5] ) = 1.58

The sequence TLKLRARQRGKLKKSEE [SRP68] showed protein stability index equal to 3.67

# sequence LHKIFYKVLKNNGLPEC [YCG1] ; its protein stability index = 2.13

Field protein stability index (entry EQQKEELTDKLSALNSE [SMC1] ) reads 3.14

List protein stability index for every entry below, keeping the order given.
1. TPATIVKKPTFTFGQST [YOR098C/NUP1]
2. SFLFDVLKTLEYKLATY [NUT1]
3. WTSTQRHHWQYTKASLA [SSN8]
4. EKLLETNVSKQNDFLFS [ECM29]
5. SIREQVHMYHKSLALLG [SNF5]
6. RKFERARGRRRSKGFKV [RPL18A]
7. ISDIPYVISLSYTDAQD [YMR129W/POM152]
8. MTPLLVNCLELLINTNF [PCI8]

Result:
1: 3.43; 2: 2.03; 3: 1.46; 4: 1.76; 5: 2.06; 6: 3.15; 7: 2.64; 8: 1.42

Lab note: each sequence below needs its protein stability index filled in.
1. DTFVHVTDLSGKETIAR [RPS14B]
2. KDSYINANTIETAKMIE [FAS2]
3. GGSFGNREEFINKLVKA [RPL7B]

Result:
2.98
3.16
2.93

Please go through the list and note protein stability index for each sequence.
1. ESILQMNQGEGEPEAGN [RPC34]
2. ITIDSVVDANGCVNSLI [YMR129W/POM152]

Result:
[3, 2.8]

# map each sequence to its protein stability index
1. LLIDQFSPVISQSLTSI [SWI1]
2. LRQKHEFLEDFDLVRNI [SMC2]
3. GPEITPEEATTIFSVMV [PRP8]
4. INSPMPQQAQMQQAQFQ [SNF2]
5. DENKASATSKPAFSFGA [YJL041W/NSP1]
6. LSRAEYDSDSDSSVEDS [LIN1]

Result:
1: 1.66; 2: 3.34; 3: 2.6; 4: 2.98; 5: 2.97; 6: 3.16

Report protein stability index for each item below.
1. SSSKQQSRLFINELVLE [SMC4]
2. YHSGRLLIQGPKASSAK [ITC1]
3. NGTLIGCVSYSPAALKQ [YMR153W/NUP53]

Result:
3.05
3.17
2.26

Please give protein stability index, item by item, for the list that follows.
1. GVCNHAFHLHCINKWIK [HRT1]
2. KDYEAKTKAMSLSIEEN [POP1]
3. SGSAGANPAGASQPEPT [YJL041W/NSP1]

Result:
1: 2.16; 2: 2.95; 3: 3.15

Consider DNEGVASKSKKKFNMGK [RPC53] . Its measured protein stability index is 3.42

* * *

experiment: protein stability index of a GFP-peptide fusion (yeast GPS) (PSI 1-4); higher = more stable; sorted into four equal gates, so the index is relative within each strain
measurement.context: pdr5∆
Kindly supply the reported protein stability index values for the records listed here.
Answers are plain numbers.

Below: 5 sequences and their reported protein stability index.
Given item CSRCGSVTRAGNIISSD [SIN4] , the value recorded as its protein stability index is 3.33

For this sequence ( RARLKGKEGRIRGNLMG [RPO21] ), measured protein stability index is 3.19

Looking up MKRMVAQWERSKLSQEF [SNF12] , I see its protein stability index listed as 3.05

LAVEDKPSPIDSGIGSN [CSL4] has a reported protein stability index of 3.27

The value of protein stability index measured for the sequence KSDEGGSYLCTSSTPSP [YOR098C/NUP1] turned out to be 3.09

Look at each sequence and report its protein stability index.
1. GVCNHAFHLHCINKWIK [HRT1]
2. EFANFELKDICSFAVTK [YML103C/NUP188]
3. LDSGDDQPQSSEAKRTK [BRR2]

Result:
1. 2.49
2. 2.29
3. 3.26

Would you mind giving protein stability index for every sequence in the list below?
1. ILCIFEGEKCHPQDFGN [SEC65]
2. HNSHLSLNYKFTTNKSK [SRP21]
3. AVFYTPKELGGLGMISA [PRP8]
4. NGGSEEEITCALDYLIP [MED7]

Result:
2.39
2.07
2.33
3.45

Please go through the list and note protein stability index for each sequence.
1. RVQVGDIVTVGQCRPIS [RPS11A]
2. LGTLVNQKTSAVAALTE [RPL8A]

Result:
1. 3.26
2. 2.45

Recorded values, source the supplement of paper PMC9732359.
